Sourced from paper PMC9482650

target: O00233; experiment: holdup assay; set-up: key: below the threshold = too weak to quantify, mostly under pKd 3.1 to 4; conditions: plain residues with an end cap or a label only (N-terminal biotin on a linker: ttds)

binder: STLTIFETAL [ABCC4, O15439]
pKd: below the threshold
//
binder: RSLEEEESQL [GRASP, Q7Z6J2]
pKd: below the threshold
//
binder: PKTPPTDTSV [KIR3DL3, Q8N743]
pKd: below the threshold
//
binder: SVWLRKETRV [CYSLTR2, Q9NS75]
pKd: below the threshold
//
binder: QSARYRDTEL [TJP2, Q9UDY2]
pKd: below the threshold
